Each record here notes measured CLhep predicted.
Test: Clearance in mouse liver microsomes
Format: ADME, Microsome
Starred links: 1 amine or outer side, 2 acyl side, 3 side chain; linkers in the order of their positions; H or OH if unused. Non-standard residues stand in square brackets, D forms with d. Residues, ends and D or L forms follow the SMILES beside them. *: point of attachment. dAlaψ(CH2NBu)Nle = CCCC[C@@H](C(=O)[*:2])N(CCCC)C[C@@H](C)N[*:1]; X1 = CCCCCC[C@@H](OC[C@@H](C)N[*:1])[C@@H](C)C(=O)[*:2]; Cyclobutyl(trans-3-NH2) = N[C@H]1C[C@H](*)C1; Gly(cHept) = N[C@H](C(=O)O)C1CCCCCC1; aThr = C[C@H](O)[C@H](N)C(=O)O; NMeL = CN[C@@H](CC(C)C)C(=O)O; Chg = N[C@H](C(=O)O)C1CCCCC1; NMeNva = CCC[C@H](NC)C(=O)O; X2 = NC[C@H]1C[C@H](*)C1; Dap = NC[C@H](N)C(=O)O
measured-metric: CLhep predicted (mL/min/kg)

1. CCCC[C@H]1C(=O)N(C)[C@@H](CC(C)C)C(=O)N[C@@H](C2CCCCC2)C(=O)N[C@@H](CN)C(=O)N[C@@H]([C@H](C)O)C(=O)N[C@H](C)CN1CCCC (cyclo([Chg][Dap][aThr][dAlaψ(CH2NBu)Nle][NMeL])); 77
2. CCCC[C@H]1C(=O)N(C)[C@@H](CCC)C(=O)N[C@@H](C2CCCCC2)C(=O)N[C@@H](CN)C(=O)N[C@@H](CO[C@H]2C[C@H](N)C2)C(=O)N[C@H](C)CN1CCCC (cyclo([Chg][Dap]S(Cyclobutyl(trans-3-NH2))[dAlaψ(CH2NBu)Nle][NMeNva])); 32
3. CCCCCC[C@H]1OC(=O)CNC(=O)[C@H]([C@H](C)O)NC(=O)[C@H](CO)NC(=O)[C@H]([C@H](C)CC)NC(=O)[C@H](CC(C)C)N(C)C(=O)[C@@H]1C; 81
4. CCCCCC[C@H]1OC[C@@H](C)NC(=O)[C@H](CO[C@H]2C[C@H](CN)C2)NC(=O)[C@H](CN)NC(=O)[C@H](C2CCCCCC2)NC(=O)[C@H](CCC)N(C)C(=O)[C@@H]1C (cyclo([Dap]S(X2)[X1][NMeNva][Gly(cHept)])); 43

###

Assay: Lipophilicity, logD of the compound at pH 7.4
Conditions: buffer, pH 7.4, logD
Starred links: 1 amine or outer side, 2 acyl side, 3 side chain; linkers in the order of their positions; H or OH if unused. Non-standard residues stand in square brackets, D forms with d. Residues, ends and D or L forms follow the SMILES beside them. *: point of attachment. X6 = C[C@H](CO[C@H](CC1C[C@H]2CC[C@@H](C1)C2)[C@@H](C)C(=O)[*:2])N[*:1]; X1 = CCCCCC[C@@H](OC[C@@H](C)N[*:1])[C@@H](C)C(=O)[*:2]; Gly(cHept) = N[C@H](C(=O)O)C1CCCCCC1; NMeL = CN[C@@H](CC(C)C)C(=O)O; Chg = N[C@H](C(=O)O)C1CCCCC1; NMeNva = CCC[C@H](NC)C(=O)O; hSer = N[C@@H](CCO)C(=O)O; Dap = NC[C@H](N)C(=O)O; Propyl(3-NH2) = NCCC*; X5 = NCCCNCCC*
measured-metric: logD

1. CCCCCC[C@H]1OC[C@@H](C)NC(=O)[C@H](COCCCN)NC(=O)[C@H](CN)NC(=O)[C@H](C2CCCCC2)NC(=O)[C@H](CC(C)C)N(C)C(=O)[C@@H]1C (cyclo([Chg][Dap]S(Propyl(3-NH2))[X1][NMeL])); 1.5
2. CCCC(C)(C)CC[C@H]1OC(=O)CNC(=O)[C@H]([C@H](C)O)NC(=O)[C@H](CN)NC(=O)[C@H]([C@H](C)CC)NC(=O)[C@H](CC(C)C)N(C)C(=O)[C@@H]1C; 3.2
3. CCCCCC[C@H]1OC[C@@H](C)NC(=O)[C@H](CNCCCN)NC(=O)[C@H](CN)NC(=O)[C@H](C2CCCCCC2)NC(=O)[C@H](CCC)N(C)C(=O)[C@@H]1C; 1.1
4. CCC[C@H]1C(=O)N[C@@H](C2CCCCCC2)C(=O)N[C@@H](CN)C(=O)N[C@@H](COCCCNCCCN)C(=O)N[C@H](C)CO[C@H](CC2C[C@H]3CC[C@@H](C2)C3)[C@@H](C)C(=O)N1C (stereo not given in full) (cyclo([Dap]S(X5)[X6][NMeNva][Gly(cHept)])); 0.2
5. CCCCCC[C@H]1OC[C@@H](C)NC(=O)[C@H](CCOCCCN)NC(=O)[C@H](CN)NC(=O)[C@H](C2CCCCCC2)NC(=O)[C@H](CCC)N(C)C(=O)[C@@H]1C (cyclo([Dap][hSer](Propyl(3-NH2))[X1][NMeNva][Gly(cHept)])); 1.7
